Sourced from PubChem BioAssay (NCI)

Tested on: SF-268 CNS
Assay: NCI-60 one-dose screen, 48 h (100 = growth as untreated, 0 = no growth, -100 = all killed)
Conditions: 10 µM unless noted
The panel holds about 83,000 compounds, 20% with a hit somewhere; the sample as a whole holds those more often.
Please provide measured growth for the entries that follow.
Give bare numbers, in %.

[
  {
    "MOLECULE": "COc1cc(OC)c(S(N)(=O)=O)cc1C(=O)/C=C/c1ccccc1",
    "U": "%",
    "growth": 38.3
  },
  {
    "MOLECULE": "CC(c1ccccc1)N1C(=O)/C(=C/c2csc(C#N)n2)SC1=S (stereo unspecified)",
    "U": "%",
    "growth": 101
  },
  {
    "MOLECULE": "COc1ccc(/C=N/Nc2nc(Nc3ccccc3)nc(Nc3ccc(S(N)(=O)=O)cc3)n2)cc1",
    "U": "%",
    "growth": 90.9
  }
]

Consider the following items and state reported growth for each.
1. O=C(N/N=C\c1ccc(Cl)cc1)c1ccc2nc(-c3ccc(Br)cc3)[nH]c2c1
2. O=C(CCCCCCN1CC(=O)N2[C@@H](c3ccc(Cl)c(F)c3)c3[nH]c4ccccc4c3C[C@H]2C1=O)NO
3. Nc1nc(-c2cccc([N+](=O)[O-])c2)c(N=Nc2ccccc2[N+](=O)[O-])s1
4. C#C[C@]1(O)CC[C@H]2[C@@H]3CC=C4c5sc(-c6cccc(F)c6)nc5CC[C@]4(C)[C@H]3CC[C@@]21C

Output:
1. 11.9
2. 106
3. 19.6
4. 85.8

Consider the following items and state reported growth for each.
1. CN(C)C(=O)c1ccccc1-n1cnc2ccccc2c1=O
2. CS(=O)(=O)c1nccc(-c2c(-c3ccc(F)c(OCCc4ccc(F)cc4)c3)nc3sccn23)n1
3. Cc1cc(C(=O)Nc2ccc(SC#N)cc2)c(C)o1
4. O=C1c2c(c3c4ccc(Br)cc4oc3c3[nH]c4ccccc4c23)C(=O)N1CCO
5. COc1ccccc1/C=C/C=N/NC1=NC2C(S1)N(C)C(=O)N2c1ccccc1 (stereo unspecified)
6. CC(C)Sc1nc(NC2CC2)c(C#N)c(-c2ccccc2)n1

Output:
[94.6, 82.8, 66.6, 49.2, 44.4, 95.8]

Consider the following items and state reported growth for each.
1. Oc1ccc(CSc2nnc(-c3ccncc3)n2-c2ccccc2)c2cccnc12
2. Cc1cc(O)c(=O)cc2c1C[C@H]1CC(C)(C)/C=C/C[C@]3(C)Oc4cc(=O)c(O)cc(C)c4C[C@H]3C[C@H](O)[C@@]1(C)O2
3. NC(=O)N1N=C(c2cc3ccccc3oc2=O)CC1c1cn(-c2ccccc2)nc1-c1ccc(Cl)cc1 (stereo unspecified)
4. COc1ccc(NC(=O)Cn2cc(CN3C(=O)c4ccc([N+](=O)[O-])cc4C3=O)nn2)cc1
5. O=C1Nc2cc(OC(F)(F)F)ccc2Oc2ccc(-c3ccnc(N4CC[C@H](O)C4)c3)cc21
6. C#C[C@]1(O)CC[C@H]2[C@@H]3CC=C4c5sc(Nc6nc(C)cc(OC)n6)nc5CC[C@]4(C)[C@H]3CC[C@@]21C

Output:
23.1
16.6
54.5
109
19.1
35.8

Consider the following items and state reported growth for each.
1. CCN1CCN(Cc2ccc(C(=O)Nc3nc4ccc(Oc5ccnc(C(=O)NC)c5)cc4s3)cc2C(F)(F)F)CC1
2. CCCCCc1ccc(S(=O)(=O)N(C(C)=O)c2cccc(-c3csc(N(CCN4CCN(C)CC4)C(C)=O)n3)c2)cc1

Output:
[78.1, 63.2]
